- tgt: T1, human APRIL protein (human, UniProt O75888 105-250, limits assumed)
- T1 construct: Bought protein; also called recombinant APRIL protein
- T1 sequence (looked up): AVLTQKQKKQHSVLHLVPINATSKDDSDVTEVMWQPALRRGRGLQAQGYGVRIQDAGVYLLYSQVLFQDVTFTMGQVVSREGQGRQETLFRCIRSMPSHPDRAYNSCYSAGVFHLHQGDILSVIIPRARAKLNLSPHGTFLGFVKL
- assayText: ELISA, coated APRIL; antibody 2.67 nM
Reported OD450 nm values for the following binders.

- binder: "93C6F10D3 (antibody, V domains shown) VH: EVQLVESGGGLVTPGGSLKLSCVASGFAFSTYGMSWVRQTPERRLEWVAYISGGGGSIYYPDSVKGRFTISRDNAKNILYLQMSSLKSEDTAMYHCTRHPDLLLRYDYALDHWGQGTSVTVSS VL: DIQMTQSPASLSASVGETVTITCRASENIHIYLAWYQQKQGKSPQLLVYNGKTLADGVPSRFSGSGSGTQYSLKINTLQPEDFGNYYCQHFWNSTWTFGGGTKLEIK"
  OD450 nm: 0.0746
- binder: "20D1B6E9E5 (antibody, V domains shown) VH: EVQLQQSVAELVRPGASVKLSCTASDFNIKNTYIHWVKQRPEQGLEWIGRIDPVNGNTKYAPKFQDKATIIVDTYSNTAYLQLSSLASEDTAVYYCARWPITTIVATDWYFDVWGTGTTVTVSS VL: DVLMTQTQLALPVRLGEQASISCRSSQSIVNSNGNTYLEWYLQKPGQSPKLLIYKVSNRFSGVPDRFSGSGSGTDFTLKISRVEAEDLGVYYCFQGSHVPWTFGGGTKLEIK"
  OD450 nm: 0.0775
- binder: "78C11D2D12 (antibody, V domains shown, Mouse hybridoma antibody purified on Protein G) VH: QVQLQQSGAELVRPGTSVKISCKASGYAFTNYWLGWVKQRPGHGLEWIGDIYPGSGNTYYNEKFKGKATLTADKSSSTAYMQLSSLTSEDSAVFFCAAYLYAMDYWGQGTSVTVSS VL: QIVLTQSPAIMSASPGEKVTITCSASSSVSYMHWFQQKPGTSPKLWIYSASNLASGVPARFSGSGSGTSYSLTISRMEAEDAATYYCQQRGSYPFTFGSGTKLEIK"
  OD450 nm: 0.0613
